Target: segments of rabbit duodenum (Oryctolagus cuniculus, UniProt G1T803)
Sequence (G1T803 1-400): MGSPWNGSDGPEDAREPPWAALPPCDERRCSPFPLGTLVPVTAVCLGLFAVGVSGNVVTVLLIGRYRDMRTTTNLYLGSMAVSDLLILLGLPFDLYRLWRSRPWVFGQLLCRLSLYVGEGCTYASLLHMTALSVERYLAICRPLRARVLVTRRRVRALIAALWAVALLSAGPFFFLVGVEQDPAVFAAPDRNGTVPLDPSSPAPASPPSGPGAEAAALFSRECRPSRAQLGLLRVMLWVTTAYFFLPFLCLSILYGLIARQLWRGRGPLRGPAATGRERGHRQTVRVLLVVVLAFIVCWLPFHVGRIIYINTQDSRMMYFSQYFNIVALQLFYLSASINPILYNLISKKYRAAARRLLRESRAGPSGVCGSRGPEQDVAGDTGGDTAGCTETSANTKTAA
Test: Rabbit duodenal smooth muscle strip tissue bath assay
Format: cell-based
Settings: negative logarithm of the dose giving 50% of the maximal response to motilin; isotonic contraction of rabbit duodenum segments
Square brackets hold non-standard residues; d marks the D form. Peptide text beside a SMILES is read from it. * marks the point of attachment. X1 = C[N+](C)(C)[C@@H](Cc1ccccc1)C(=O)*
readoutLabel: pEC50

compound	readoutLabel	readoutNumber
CC[C@H](C)[C@H](NC(=O)[C@@H]1CCCN1C(=O)[C@@H](NC(=O)[C@H](Cc1ccccc1)[N+](C)(C)C)C(C)C)C(=O)N[C@@H](Cc1ccccc1)C(=O)N[C@H](C(=O)N[C@@H](Cc1ccc(O)cc1)C(=O)NCC(=O)N[C@@H](CCC(=O)O)C(=O)N[C@@H](CC(C)C)C(=O)N[C@@H](CCC(N)=O)C(=O)N[C@H](CCCNC(=N)N)C(=O)N[C@@H](CC(C)C)C(=O)N[C@H](CCC(N)=O)C(N)=O)[C@@H](C)O (X1-VPIFTYGELQ[dR]L[dQ]-NH2)	pEC50	7.39

The measured values listed here are drawn from patent US5422341A.
